target: Cytochrome P450 2C9 (Homo sapiens, UniProt P11712)
Sequence (P11712 whole entry): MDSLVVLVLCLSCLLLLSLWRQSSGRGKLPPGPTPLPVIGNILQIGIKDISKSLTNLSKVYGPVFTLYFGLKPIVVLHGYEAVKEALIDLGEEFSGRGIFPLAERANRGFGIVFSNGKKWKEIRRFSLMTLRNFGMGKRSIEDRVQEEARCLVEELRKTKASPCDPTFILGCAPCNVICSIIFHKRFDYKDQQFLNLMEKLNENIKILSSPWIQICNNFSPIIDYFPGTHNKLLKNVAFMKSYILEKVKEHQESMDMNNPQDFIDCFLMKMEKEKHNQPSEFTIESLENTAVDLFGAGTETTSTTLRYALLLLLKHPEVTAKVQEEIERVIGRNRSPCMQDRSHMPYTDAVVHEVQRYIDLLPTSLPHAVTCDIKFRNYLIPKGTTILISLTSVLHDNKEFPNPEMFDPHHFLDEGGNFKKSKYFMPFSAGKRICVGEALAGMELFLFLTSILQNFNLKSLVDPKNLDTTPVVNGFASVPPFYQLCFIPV
Result Type: pIC50
A value of pIC50 is the negative decimal logarithm of a concentration given in moles per litre.

Look up pIC50: N#CC1(NC(=O)[C@@H]2Cc3ccc(c(Cl)c3)OCCCCOc3cc(C(F)(F)F)ccc3C(=O)N2)CC1
4.80

---

experiment: Clearance in C57BL/6J mouse administered via iv as bolus dose by LC-MS/MS analysis; type: ADME, organism-based; details: in vivo
Result Type: clearance (mL/min/kg)
Write the number in mL/min/kg without appending the unit.

Look up clearance: N#CC1(NC(=O)[C@@H]2Cc3ccc(c(Cl)c3)OCCCCOc3cc(C(F)(F)F)ccc3C(=O)N2)CC1
79
